Every entry's value here was drawn from paper PMC7948503.

experimental.target: T1, Rluc-ADGRG2-ΔGPS-β F764A (mouse, UniProt Q8CJ12-3 38-995, F764A)
T1 construct: ADGRG2 (GPR64), mouse, ADGRG2-ΔGPS-β: the entire ECD removed; source: HEK293, transfected, on cells; not shown: Rluc, N-terminal, kept
T1 sequence (Q8CJ12 other isoform, or with tags, fused parts or gaps F764A | F764A | F764A F764A): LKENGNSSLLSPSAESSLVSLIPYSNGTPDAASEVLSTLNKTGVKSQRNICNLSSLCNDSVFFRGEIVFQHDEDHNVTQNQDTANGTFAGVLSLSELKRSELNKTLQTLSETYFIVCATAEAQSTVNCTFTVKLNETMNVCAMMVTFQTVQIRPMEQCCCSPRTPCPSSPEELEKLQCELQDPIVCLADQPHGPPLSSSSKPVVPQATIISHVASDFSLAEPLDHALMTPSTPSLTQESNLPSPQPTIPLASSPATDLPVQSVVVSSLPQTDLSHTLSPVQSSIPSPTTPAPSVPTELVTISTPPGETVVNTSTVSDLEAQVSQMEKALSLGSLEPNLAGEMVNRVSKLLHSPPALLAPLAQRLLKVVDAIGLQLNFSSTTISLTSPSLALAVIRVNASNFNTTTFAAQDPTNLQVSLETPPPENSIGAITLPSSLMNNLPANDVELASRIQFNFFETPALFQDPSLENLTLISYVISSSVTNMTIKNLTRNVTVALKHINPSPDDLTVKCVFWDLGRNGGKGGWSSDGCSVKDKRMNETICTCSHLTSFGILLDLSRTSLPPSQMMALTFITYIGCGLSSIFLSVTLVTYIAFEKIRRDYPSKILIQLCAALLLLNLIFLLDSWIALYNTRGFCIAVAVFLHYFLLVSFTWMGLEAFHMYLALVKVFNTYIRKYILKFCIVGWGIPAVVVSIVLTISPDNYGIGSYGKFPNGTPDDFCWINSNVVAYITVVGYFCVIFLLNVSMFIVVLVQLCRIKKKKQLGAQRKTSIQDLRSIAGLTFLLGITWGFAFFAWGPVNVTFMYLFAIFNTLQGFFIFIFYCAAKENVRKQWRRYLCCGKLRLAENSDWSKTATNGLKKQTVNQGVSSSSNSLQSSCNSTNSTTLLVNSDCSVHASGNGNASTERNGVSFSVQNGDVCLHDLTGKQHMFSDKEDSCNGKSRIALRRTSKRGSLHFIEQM
experiment.description: FRET or BRET; HEK293 cells transfected with Rluc-ADGRG2-ΔGPS-β WT or mutants, stimulated by increasing concentrations of FITC-conjugated VPM-p15; saturation curves fitted with GraphPad; each experiment repeated 6 times
measurement.conditions: one partner purified
Non-standard residues stand in square brackets, D forms with d. Primed or numbered codes have the meaning given here. No end group written: not given here. Phe(4-Me) = Cc1ccc(C[C@H](N)C(=O)O)cc1; FITC′ = not defined here
endpoint: pEC50
Answers are plain numbers, as −log10 of the molar value.

Query: Any idea what pEC50 was measured for VS[Phe(4-Me)]GILLDLSRTSLP-{FITC′} [FITC-conjugated VPM-p15 (ADGRG2 Stachel peptide p15 T1V/F3Phe(4-Me))] ?
Result: 5.96
